# ASSAY_PROCEDURE: Caco-2 cell monolayer membrane transport assay (Papp and recovery)
# Assay type: in vitro ADME
# EXPERIMENTAL_CONDITIONS: human, Caco-2, Papp B-A, Sample-01
MEASUREMENT_NAME: Papp B→A (×10⁻⁶ cm/s)
Please state the figure in ×10⁻⁶ cm/s; there is no need to write the unit.

Request: Tell me the measured Papp B→A of COCCc1ccc(OCC(O)CNC(C)C)cc1 (stereo not shown) [Metoprolol, reference compound] , please.
Result: 22.4

----------
# ASSAY_PROCEDURE: Caco-2 cell monolayer membrane transport assay (Papp and recovery)
# Format: in vitro ADME
# EXPERIMENTAL_CONDITIONS: human, Caco-2, Caco-2, A-B, Sample-02; read-out: Recovery rate in mass, Sample-02
The entries below are paired with their reported recovery.
Don't forget the unit after the number, please.

Here is how some compounds turned out for recovery.
COC(=O)O[C@H]1C[C@H]2OC[C@@]2(OC(C)=O)[C@H]2[C@H](OC(=O)c3ccccc3)[C@]34OC(=O)O[C@H]3[C@H](OC(=O)[C@H](O)[C@H](CC(C)C)NC(=O)OC(C)(C)C)C(C)=C([C@@H](OC)C(=O)[C@]12C)C4(C)C [PCMI-20] = 83.3%
CO[C@H]1C[C@H]2OC[C@@]2(OC(C)=O)[C@H]2[C@H](OC(=O)c3ccccc3)[C@]34OC(=O)O[C@H]3[C@H](OC(=O)[C@H](O)[C@H](CC(C)C)NC(=O)OC(C)(C)C)C(C)=C([C@@H](OC(=O)N(C)C)C(=O)[C@]12C)C4(C)C [PCMI-10] = 40.5%
CO[C@H]1C(=O)[C@]2(C)[C@@H](OC(=O)N(C)C)C[C@H]3OC[C@@]3(OC(C)=O)[C@H]2[C@H](OC(=O)c2ccccc2)[C@]23OC(=O)O[C@H]2[C@H](OC(=O)[C@H](O)[C@@H](NC(=O)OC(C)(C)C)c2ccccn2)C(C)=C1C3(C)C [PCMI-15] = 74.8%
CO[C@H]1C[C@H]2OC[C@@]2(OC(C)=O)[C@H]2[C@H](OC(=O)c3ccccc3)[C@]34OC(=O)O[C@H]3[C@H](OC(=O)[C@H](O)[C@@H](NC(=O)N(C)C)c3ccccc3)C(C)=C([C@@H](OC(=O)N(C)C)C(=O)[C@]12C)C4(C)C [PCMI-11] = 80.2%

We now examine a further compound.
Request: Which recovery value is on record for CO[C@H]1C(=O)[C@]2(C)[C@@H](OC)C[C@H]3OC[C@@]3(OC(C)=O)[C@H]2[C@H](OC(=O)c2ccccc2)[C@]23OC(=O)O[C@H]2[C@H](OC(=O)[C@H](O)[C@@H](NC(=O)N(C)C)c2ccccc2)C(C)=C1C3(C)C [PCMI-03] ?
Result: 58.2%

----------
We begin with a simple list: items and their reported Papp A→B.
# ASSAY_PROCEDURE: Caco-2 cell monolayer membrane transport assay (Papp and recovery)
# Type: in vitro ADME
# EXPERIMENTAL_CONDITIONS: human, Caco-2, Caco-2, A-B, Sample-02; read-out: Papp A-B, Sample-02
Give the value, in units of ×10⁻⁶ cm/s, as a plain number.

CO[C@H]1C(=O)[C@]2(C)[C@@H](OC)C[C@H]3OC[C@@]3(OC(C)=O)[C@H]2[C@H](OC(=O)c2ccccc2)[C@]23OC(=O)O[C@H]2[C@H](OC(=O)[C@H](O)[C@@H](NC(=O)OC(C)(C)C)c2ccccn2)C(C)=C1C3(C)C = 2.86
CO[C@H]1C(=O)[C@]2(C)[C@@H](OC)C[C@H]3OC[C@@]3(OC(C)=O)[C@H]2[C@H](OC(=O)c2ccccc2)[C@]23OC(=O)O[C@H]2[C@H](OC(=O)[C@H](O)[C@@H](NC(=O)N(C)C)c2ccccc2)C(C)=C1C3(C)C = 3.89
CO[C@H]1C(=O)[C@]2(C)[C@@H](OC(=O)N(C)C)C[C@H]3OC[C@@]3(OC(C)=O)[C@H]2[C@H](OC(=O)c2ccccc2)[C@]23OC(=O)O[C@H]2[C@H](OC(=O)[C@H](O)[C@H](CC(C)C)NC(=O)OC(C)(C)C)C(C)=C1C3(C)C = 1.87
COC(=O)O[C@H]1C[C@H]2OC[C@@]2(OC(C)=O)[C@H]2[C@H](OC(=O)c3ccccc3)[C@]34OC(=O)O[C@H]3[C@H](OC(=O)[C@H](O)[C@@H](NC(=O)OC(C)(C)C)c3ccccc3)C(C)=C([C@@H](OC)C(=O)[C@]12C)C4(C)C = 3.16

Request: Given the compound CO[C@H]1C[C@H]2OC[C@@]2(OC(C)=O)[C@H]2[C@H](OC(=O)c3ccccc3)[C@]34OC(=O)O[C@H]3[C@H](OC(=O)[C@H](O)[C@@H](NC(=O)OC(C)(C)C)c3ccccn3)C(C)=C([C@@H](OC(=O)N(C)C)C(=O)[C@]12C)C4(C)C , what is its reported Papp A→B?
Result: 3.59

Request: Reported Papp A→B for CO[C@H]1C[C@H]2OC[C@@]2(OC(C)=O)[C@H]2[C@H](OC(=O)c3ccccc3)[C@]34OC(=O)O[C@H]3[C@H](OC(=O)[C@H](O)[C@H](CC(C)C)NC(=O)OC(C)(C)C)C(C)=C([C@@H](OC(=O)N(C)C)C(=O)[C@]12C)C4(C)C : what is it?
Result: 0.89

Request: Look up Papp A→B: CO[C@H]1C[C@H]2OC[C@@]2(OC(C)=O)[C@H]2[C@H](OC(=O)c3ccccc3)[C@]34OC(=O)O[C@H]3[C@H](OC(=O)[C@H](O)[C@@H](NC(=O)N(C)C)c3ccccc3)C(C)=C([C@@H](OC(=O)N(C)C)C(=O)[C@]12C)C4(C)C
Result: 1.02

Request: Papp A→B lookup needed for CO[C@H]1C[C@H]2OC[C@@]2(OC(C)=O)[C@H]2[C@H](OC(=O)c3ccccc3)[C@]34OC(=O)O[C@H]3[C@H](OC(=O)[C@H](O)[C@@H](NC(=O)OC(C)(C)C)c3ccccc3)C(C)=C([C@@H](OC(=O)N(C)C)C(=O)[C@]12C)C4(C)C , thanks.
Result: 17.3

Request: Using the record for CCSC(=O)O[C@H]1C[C@H]2OC[C@@]2(OC(C)=O)[C@H]2[C@H](OC(=O)c3ccccc3)[C@]34OC(=O)O[C@H]3[C@H](OC(=O)[C@H](O)[C@@H](NC(=O)OC(C)(C)C)c3ccccc3)C(C)=C([C@@H](OC)C(=O)[C@]12C)C4(C)C , report its Papp A→B.
Result: 2.58

Request: Which value of Papp A→B has been reported for CO[C@H]1C(=O)[C@]2(C)[C@@H](OC(=O)N(C)C)C[C@H]3OC[C@@]3(OC(C)=O)[C@H]2[C@H](OC(=O)c2ccccc2)[C@]23OC(=O)O[C@H]2[C@H](OC(=O)[C@H](O)[C@@H](NC(=O)OC(C)(C)C)c2ccccn2)C(C)=C1C3(C)C in the records?
Result: 2.78
